Target: PTP-1B (Homo sapiens, UniProt P18031)
Sequence (P18031 whole entry, species assumed): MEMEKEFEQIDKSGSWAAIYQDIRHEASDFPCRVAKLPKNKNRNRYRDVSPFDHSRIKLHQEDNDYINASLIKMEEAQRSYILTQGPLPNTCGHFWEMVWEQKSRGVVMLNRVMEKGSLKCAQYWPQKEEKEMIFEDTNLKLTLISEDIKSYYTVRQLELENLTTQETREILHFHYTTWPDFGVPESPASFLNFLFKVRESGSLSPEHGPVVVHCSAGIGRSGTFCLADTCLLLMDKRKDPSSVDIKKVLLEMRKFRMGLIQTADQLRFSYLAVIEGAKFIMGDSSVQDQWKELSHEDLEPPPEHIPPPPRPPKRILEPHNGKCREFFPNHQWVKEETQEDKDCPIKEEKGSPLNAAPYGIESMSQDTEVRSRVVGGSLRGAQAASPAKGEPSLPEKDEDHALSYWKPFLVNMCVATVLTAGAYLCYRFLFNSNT
Assay: PTP-1B enzyme inhibition assay
Type: biochemical
Conditions: in vitro enzyme inhibition; read-out: Antidiabetic Activity (PTP-1B) IC50 Values (converted)
Rule: measured IC50 below 20 µM gets Fulfilled; anything equal to or greater than 20 µM gets Not fulfilled.

The examples below pair each entry with its known result.
• O=C(O[C@@H]1O[C@@H]2COC(=O)c3cc(O)c(O)c(O)c3-c3c(cc(O)c(O)c3O)C(=O)O[C@H]([C@H]1O)[C@@H]2O)c1cc(O)c(O)c(O)c1 = Fulfilled
• Oc1cc(O)c2c(c1)OC(c1ccc(O)c(O)c1)C(O)C2 (single isomer, unassigned; (+)) [Catechin, (+)-Catechin] = Fulfilled
• Oc1cc(O)c2c(c1)O[C@H](c1ccc(O)c(O)c1)[C@H](O)C2 [Epicatechin, (–)-Epicatechin] = Fulfilled

In: Hello, I'm reviewing records and need to know if IC50 of COc1cc2c(=O)oc3c(OC)c(OC)cc4c(=O)oc(c1OC)c2c34 is below 20 µM. Could you check?
Out: Not fulfilled

In: Hello, I'm reviewing records and need to know if IC50 of O=C(O)/C=C/c1ccc(O)c(O)c1 is below 20 µM. Could you check?
Out: Not fulfilled

In: Hello, I'm reviewing records and need to know if IC50 of COc1c(O)cc2c(=O)oc3c(OC)c(O)cc4c(=O)oc1c2c34 is below 20 µM. Could you check?
Out: Fulfilled
